Reference source for all entries: patent US10517889B2

# Test system: human SMAD7 mRNA
# ASSAY_PROTOCOL: Antisense inhibition of human SMAD7 mRNA expression in Hep3B cells by 3-10-3 cEt gapmers, 10,000 nM, electroporation (Example 2)
# Format: cell-based
# ASSAY_CONTEXT: Hep3B cells, electroporation with 10,000 nM antisense oligonucleotide, approximately 24 hours, primer probe set RTS5062, relative to untreated control cells
Strand notation (5' to 3'): a small letter for the sugar, then the base; units joined by * are phosphorothioate-linked, units joined directly phosphodiester-linked; [ ] holds rarer units or linkages, { } end groups; capitals alone tell only the bases. k = constrained ethyl (cEt); [5mC] = 5-methylcytosine; d = 2'-deoxy (DNA)

SUBSTANCE	% inhibition of SMAD7 mRNA expression, %
799150 (antisense k[5mC]*kT*kA*dG*dG*dA*dT*dG*dG*dT*dA*d[5mC]*d[5mC]*kT*kT*kG) [compound 799150]	22
799423 (antisense kT*kA*k[5mC]*d[5mC]*dA*dG*dG*d[5mC]*d[5mC]*d[5mC]*d[5mC]*dA*dG*k[5mC]*k[5mC]*k[5mC]) [compound 799423]	14
790489 (k[5mC]*kT*k[5mC]*dT*dT*dG*dA*d[5mC]*dT*dT*d[5mC]*d[5mC]*dG*kA*kG*kG; antisense) [compound 790489]	0
772533 (antisense kT*kG*kA*dA*dG*dA*dA*dG*dT*d[5mC]*dG*dG*dG*k[5mC]*kG*k[5mC]) [compound 772533]	31
799199 (antisense kG*kG*kA*dG*dT*d[5mC]*d[5mC]*dT*dT*dT*d[5mC]*dT*d[5mC]*kT*k[5mC]*kT) [compound 799199]	24
799026 (k[5mC]*k[5mC]*kG*d[5mC]*dT*dT*dG*dG*dG*dA*d[5mC]*dT*dG*k[5mC]*kA*kA; antisense) [compound 799026]	1
799341 (kG*kA*kA*dG*dG*dA*dA*dA*dA*dA*dG*dT*dA*kG*kG*kG; antisense) [compound 799341]	8
799344 (k[5mC]*k[5mC]*k[5mC]*dA*d[5mC]*dT*dA*dA*dT*d[5mC]*dT*dA*d[5mC]*kA*kG*kA; antisense) [compound 799344]	34
799068 (antisense kG*kA*k[5mC]*dA*dA*dG*dG*dA*dT*dG*dA*dA*dA*kA*kT*kA) [compound 799068]	49
799251 (antisense kA*kG*kG*dT*dG*d[5mC]*dG*d[5mC]*dG*dG*d[5mC]*d[5mC]*dA*k[5mC]*kG*kA) [compound 799251]	37
799189 (antisense kA*kA*kT*dG*d[5mC]*dT*dT*d[5mC]*dT*d[5mC]*dT*dT*dG*kT*kT*k[5mC]) [compound 799189]	33
798773 (kT*kG*kA*d[5mC]*dT*dT*d[5mC]*d[5mC]*dG*dA*dG*dG*dA*kA*kT*kG; antisense) [compound 798773]	40
799266 (antisense kG*kG*k[5mC]*d[5mC]*dT*dT*d[5mC]*d[5mC]*dA*dT*d[5mC]*d[5mC]*dA*kA*k[5mC]*kT) [compound 799266]	37
799050 (antisense kA*k[5mC]*kA*dG*dG*d[5mC]*d[5mC]*d[5mC]*dG*dT*dG*dT*d[5mC]*k[5mC]*kT*kT) [compound 799050]	36
799123 (antisense k[5mC]*kT*kT*dG*d[5mC]*dT*dG*dG*d[5mC]*d[5mC]*dT*dA*dA*kT*kA*kG) [compound 799123]	23
799346 (kT*k[5mC]*kT*d[5mC]*dA*dG*d[5mC]*d[5mC]*dG*dA*dG*dA*dA*kG*k[5mC]*k[5mC]; antisense) [compound 799346]	26
798972 (antisense kT*kA*kT*d[5mC]*dA*dG*dG*dG*dT*dG*dT*d[5mC]*d[5mC]*kT*kG*k[5mC]) [compound 798972]	18
798765 (kA*kA*k[5mC]*dA*d[5mC]*dT*dT*dT*dG*d[5mC]*dA*d[5mC]*dA*kG*k[5mC]*kA; antisense) [compound 798765]	63
798943 (antisense k[5mC]*kG*kA*dG*dG*dA*d[5mC]*dG*dA*dG*dA*dA*dG*kA*kA*kG) [compound 798943]	13
799401 (antisense kT*k[5mC]*kT*dT*dT*dT*dA*dA*dG*dG*dA*dA*dA*kA*k[5mC]*k[5mC]) [compound 799401]	53
798672 (antisense kG*kG*k[5mC]*dA*dG*dG*dA*dG*d[5mC]*dG*dG*d[5mC]*dG*kG*k[5mC]*kG) [compound 798672]	6
799203 (antisense kG*kG*kT*dT*dT*dT*dT*dT*dT*dT*d[5mC]*dA*dG*kG*kA*kG) [compound 799203]	56
799382 (antisense kA*k[5mC]*kT*dT*dT*dT*dA*dG*d[5mC]*dA*dA*dA*d[5mC]*kA*kG*kA) [compound 799382]	82
799233 (k[5mC]*kA*kT*dT*d[5mC]*dA*dG*d[5mC]*dT*dA*dG*dG*dT*kG*kA*kT; antisense) [compound 799233]	28
